Values were extracted from PubChem BioAssay AID1159580.

Documented normalized growth across a set of compounds
- assaySummary: chemical genetic growth profiling, strain panel (AID 1159580);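 also: tested at 20 µM; growth read once vehicle control cultures reached saturation at 30 °C; 1 = growth at the plate median or of vehicle wells; lower values mean less growth of the strain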
- testContext: S. cerevisiae deletion strains, growth OD, locus YOL147C, strain pex11, active compounds read low
Among all 5,500 compounds or so, about 2,000 (36%) were called active. Another 18% or so got no clear call; they are omitted. The list shows a part of the results.
measuredMetric: normalized growth

[[record]]
compound = "CCCCCCCCCCCCCCCC[n+]1ccccc1"
measurement = 0.0569

[[record]]
compound = "Cc1cc(=O)c2c(O)c3c(cc2o1)OCC(C)CC3 (configuration not stated)"
measurement = 0.887

[[record]]
compound = "Cc1cc(=O)c2c(O)c3c(cc2o1)OC(C)(C)CC3"
measurement = 0.967

[[record]]
compound = "CC1=CCc2c(cc3oc(C)cc(=O)c3c2O)OC1"
measurement = 0.922

[[record]]
compound = "COc1ccc(-c2cc(=O)c3ccccc3o2)cc1"
measurement = 0.819

[[record]]
compound = "COc1ccc(-c2cc(=O)c3c(OC)cccc3o2)cc1"
measurement = 1.03

[[record]]
compound = "CCC1C2CC3C4N(C)c5ccccc5C45CC(C2C5OC(C)=O)N3C1OC(C)=O (configuration not stated)"
measurement = 1.02


----------
This listing pairs compounds with measured normalized growth.
- assaySummary: chemical genetic growth profiling, strain panel (AID 1159580);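 also: tested at 20 µM; growth read once vehicle control cultures reached saturation at 30 °C; 1 = growth at the plate median or of vehicle wells; lower values mean less growth of the strain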
- testContext: S. cerevisiae deletion strains, growth OD, locus YEL061C, strain CIN8 (second series), active compounds read low
About 2,000 (36%) of roughly 5,500 compounds were called active. Another 18% or so got no clear call; they are omitted. This is one part of the list.
measuredMetric: normalized growth

[[record]]
compound = "C=CCCCCCCCCCCCC(O)CC(O)CO (centres undefined)"
measuredmetric = "normalized growth"
measurement = 0.994

[[record]]
compound = "CC(C)Oc1ccc2c(=O)cc(-c3ccccc3)oc2c1"
measuredmetric = "normalized growth"
measurement = 0.916

[[record]]
compound = "NCCc1ccc(O)c(O)c1"
measuredmetric = "normalized growth"
measurement = 1.02

[[record]]
compound = "Nc1ccc(C(=O)O)c(O)c1"
measuredmetric = "normalized growth"
measurement = 0.994

[[record]]
compound = "O=c1oc2ccccc2c(O)c1Cc1c(O)c2ccccc2oc1=O"
measuredmetric = "normalized growth"
measurement = 1.03

[[record]]
compound = "O=c1c(-c2cc(O)c(O)c(O)c2)coc2cc(O)c(O)c(O)c12"
measuredmetric = "normalized growth"
measurement = 1

[[record]]
compound = "CC(=O)Nc1ccc(O)cc1"
measuredmetric = "normalized growth"
measurement = 1.01

[[record]]
compound = "COc1cc([C@@H]2c3cc4c(cc3[C@H](O)[C@H]3COC(=O)[C@@H]23)OCO4)cc(OC)c1OC"
measuredmetric = "normalized growth"
measurement = 1.02

[[record]]
compound = "CCCCC1C(=O)N(c2ccccc2)N(c2ccccc2)C1=O"
measuredmetric = "normalized growth"
measurement = 0.983

[[record]]
compound = "CC(=O)Oc1cc(-c2coc3cc(OC(C)=O)c(OC(C)=O)c(OC(C)=O)c3c2=O)cc(OC(C)=O)c1OC(C)=O"
measuredmetric = "normalized growth"
measurement = 0.946

[[record]]
compound = "COc1cc2c3cc1Oc1cc(ccc1O)C[C@@H]1c4c(cc(OC)c(O)c4Oc4ccc(cc4)C[C@@H]3N(C)CC2)CC[N+]1(C)C"
measuredmetric = "normalized growth"
measurement = 0.967

[[record]]
compound = "N[C@H](CO)Cc1ccccc1"
measuredmetric = "normalized growth"
measurement = 1.02

[[record]]
compound = "CC(=O)CC(c1ccccc1)c1c(O)c2ccccc2oc1=O (centres undefined)"
measuredmetric = "normalized growth"
measurement = 0.999

[[record]]
compound = "CC(=O)O.CC(=O)O.[Cd]"
measuredmetric = "normalized growth"
measurement = 0.866

[[record]]
compound = "O=C1CCc2cc(OCCCCc3nnnn3C3CCCCC3)ccc2N1"
measuredmetric = "normalized growth"
measurement = 0.998

[[record]]
compound = "O=C(O)c1cc(=O)c2ccccc2o1"
measuredmetric = "normalized growth"
measurement = 0.97

[[record]]
compound = "CC(=O)Nc1cccc(O)c1"
measuredmetric = "normalized growth"
measurement = 1

[[record]]
compound = "O=c1c(-c2ccc(O)cc2)coc2cc(O)cc(O)c12"
measuredmetric = "normalized growth"
measurement = 1.01

[[record]]
compound = "Nc1ccc(C(=O)Oc2ccccc2)c(O)c1"
measuredmetric = "normalized growth"
measurement = 0.916

[[record]]
compound = "COc1cc([C@@H]2c3cc4c(cc3C(O[C@@H]3O[C@@H]5CO[C@@H](c6cccs6)OC5[C@H](O)[C@H]3O)C3COC(=O)[C@@H]32)OCO4)cc(OC)c1O (some centres undefined)"
measuredmetric = "normalized growth"
measurement = 0.967

[[record]]
compound = "COc1ccc(-c2cc(=O)c3ccccc3o2)cc1OC"
measuredmetric = "normalized growth"
measurement = 0.913

[[record]]
compound = "COc1cc([C@@H]2c3cc4c(cc3[C@H](OC(C)=O)[C@H]3COC(=O)[C@H]23)OCO4)cc(OC)c1OC"
measuredmetric = "normalized growth"
measurement = 0.996

[[record]]
compound = "O=c1c2ccccc2oc2ccccc12"
measuredmetric = "normalized growth"
measurement = 0.879

[[record]]
compound = "Nc1nnc(-c2cccc(Cl)c2Cl)c(N)n1"
measuredmetric = "normalized growth"
measurement = 1.02

